All values here come from paper PMC4774501.

Target: vitamin D receptor (VDR) (Homo sapiens)
Sequence (P11473 118-427): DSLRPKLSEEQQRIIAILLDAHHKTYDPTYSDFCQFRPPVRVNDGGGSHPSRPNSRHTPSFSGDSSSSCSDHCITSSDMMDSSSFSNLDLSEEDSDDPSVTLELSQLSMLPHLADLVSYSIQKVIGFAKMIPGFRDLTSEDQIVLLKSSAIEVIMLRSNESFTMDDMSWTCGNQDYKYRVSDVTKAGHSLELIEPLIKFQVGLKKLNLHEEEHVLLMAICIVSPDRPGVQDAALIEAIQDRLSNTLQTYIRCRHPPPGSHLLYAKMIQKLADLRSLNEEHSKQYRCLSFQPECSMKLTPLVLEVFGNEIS
Assay Readout: Kd (µM)

[[record]]
smiles_representation = "O=c1c(O)c(-c2ccc(O)c(O)c2)oc2cc(O)cc(O)c12"
assay_readout = "Kd"
observed = 21.1

